Form field: MIC E. faecalis (one value per entry).
System: E. faecalis ATCC 29121
Assay: microbe, parasite or virus in culture
Settings: Table 6; E. faecalis ATCC29121
Numbered stars: 1 amine (or outer) side, 2 acyl side, 3 side chain; on linkers, the order of the positions; unused ones are H or OH. Bridge positions count the residues as written; N and C are the ends. Square brackets hold non-standard residues; d marks the D form. Peptide text beside a SMILES is read from it. TBMB = c1c(C[*:1])cc(C[*:3])cc1C[*:2]
Numeric answer only, unit µg/mL assumed.

{"MOLECULE": "CN[C@H](CC(C)C)C(=O)N[C@H]1C(=O)N[C@@H](CC(N)=O)C(=O)N[C@H]2C(=O)N[C@H]3C(=O)N[C@H](C(=O)N[C@H](C(=O)O)c4cc(O)cc(O)c4-c4cc3ccc4O)[C@H](O)c3ccc(c(Cl)c3)Oc3cc2cc(c3O[C@@H]2O[C@H](CO)[C@@H](O)[C@H](O)[C@H]2O[C@H]2C[C@](C)(N)[C@H](O)[C@H](C)O2)Oc2ccc(cc2Cl)[C@H]1O [P1, Vancomycin, reference compound]", "MIC E. faecalis / µg/mL": 1}
{"MOLECULE": "CSCC[C@H]1NC(=O)[C@@H](CC(=O)O)NC(=O)[C@H]2CSCc3cc(cc(c3)CSC[C@H](C(N)=O)NC(=O)[C@@H](Cc3c[nH]cn3)NC(=O)[C@@H](CC(C)C)NC1=O)CSC[C@@H](N)C(=O)N[C@H](CCC(N)=O)C(=O)N[C@H](Cc1ccc(O)cc1)C(=O)N[C@H](CC(N)=O)C(=O)N[C@H](CC(=O)O)C(=O)N2 [P16, COYNDCDMLHC] (H-[dC][dQ][dY][dN][dD][dC][dD][dM][dL][dH][dC]-NH2; linker 1-6-11 via TBMB)", "MIC E. faecalis / µg/mL": 128}

// below: MIC E. faecalis requested for another molecule
q: Tell me the measured MIC E. faecalis of CC(C)[C@H]1NC(=O)CNC(=O)[C@@H](Cc2ccccc2)NC(=O)[C@H]2CSCc3cc(cc(c3)CSC[C@H](C(N)=O)NC(=O)[C@@H](CO)NC(=O)[C@@H](CCC(N)=O)NC1=O)CSC[C@@H](N)C(=O)NCC(=O)N[C@H](C)C(=O)N[C@H](CCC(N)=O)C(=O)NCC(=O)N2 [P20, CGAQGCFGVQSC] (H-[dC]G[dA][dQ]G[dC][dF]G[dV][dQ][dS][dC]-NH2; linker 1-6-12 via TBMB) , please.
a: 256

====

Form field: MIC E. coli (one value per entry).
Tested on: E. coli ATCC 25992
Test: microbe, parasite or virus in culture
Settings: Table 6; E. Coli ATCC25992
Numbered stars: 1 amine (or outer) side, 2 acyl side, 3 side chain; on linkers, the order of the positions; unused ones are H or OH. Bridge positions count the residues as written; N and C are the ends. Square brackets hold non-standard residues; d marks the D form. Peptide text beside a SMILES is read from it. TBMB = c1c(C[*:1])cc(C[*:3])cc1C[*:2]

{"COMPOUND": "CC(C)C[C@H]1NC(=O)[C@@H](CCC(N)=O)NC(=O)[C@@H](CO)NC(=O)[C@@H](CO)NC(=O)[C@@H](CO)NC(=O)[C@H]2CSCc3cc(cc(c3)CSC[C@H](C(N)=O)NC(=O)[C@@H](Cc3ccc(O)cc3)NC1=O)CSC[C@@H](N)C(=O)N[C@H]([C@H](C)O)C(=O)N[C@H](CCCNC(=N)N)C(=O)N[C@H](C(C)C)C(=O)N2 [P19, CTRVCSSSQLYC] (H-[dC][dT][dR][dV][dC][dS][dS][dS][dQ][dL][dY][dC]-NH2; linker 1-5-12 via TBMB)", "MEASURED TARGET": "E. coli ATCC 25992", "MIC E. coli": ">256 µg/mL"}
{"COMPOUND": "CN[C@H](CC(C)C)C(=O)N[C@H]1C(=O)N[C@@H](CC(N)=O)C(=O)N[C@H]2C(=O)N[C@H]3C(=O)N[C@H](C(=O)N[C@H](C(=O)O)c4cc(O)cc(O)c4-c4cc3ccc4O)[C@H](O)c3ccc(c(Cl)c3)Oc3cc2cc(c3O[C@@H]2O[C@H](CO)[C@@H](O)[C@H](O)[C@H]2O[C@H]2C[C@](C)(N)[C@H](O)[C@H](C)O2)Oc2ccc(cc2Cl)[C@H]1O [P1, Vancomycin, reference compound]", "MEASURED TARGET": "E. coli ATCC 25992", "MIC E. coli": ">256 µg/mL"}
{"COMPOUND": "CC[C@@H](C)[C@H]1NC(=O)[C@@H](C(C)C)NC(=O)[C@H]2CSCc3cc(cc(c3)CSC[C@H](C(N)=O)NC(=O)[C@@H](CC(=O)O)NC1=O)CSC[C@@H](N)C(=O)N[C@H](CC(C)C)C(=O)N[C@H](CO)C(=O)N[C@H](CCC(N)=O)C(=O)N[C@H](Cc1ccccc1)C(=O)N2 [P17, CLSQFCVIDC] (H-[dC][dL][dS][dQ][dF][dC][dV][dI][dD][dC]-NH2; linker 1-6-10 via TBMB)", "MEASURED TARGET": "E. coli ATCC 25992", "MIC E. coli": ">256 µg/mL"}

// below: MIC E. coli requested for another compound
q: Tell me the measured MIC E. coli of CC(C)[C@H]1NC(=O)CNC(=O)[C@@H](Cc2ccccc2)NC(=O)[C@H]2CSCc3cc(cc(c3)CSC[C@H](C(N)=O)NC(=O)[C@@H](CO)NC(=O)[C@@H](CCC(N)=O)NC1=O)CSC[C@@H](N)C(=O)NCC(=O)N[C@H](C)C(=O)N[C@H](CCC(N)=O)C(=O)NCC(=O)N2 [P20, CGAQGCFGVQSC] (H-[dC]G[dA][dQ]G[dC][dF]G[dV][dQ][dS][dC]-NH2; linker 1-6-12 via TBMB) , please.
a: >256 µg/mL

====

System: E. faecalis ATCC 29121
Assay: microbe, parasite or virus in culture
Settings: ATCC 29121
Square brackets hold non-standard residues; d marks the D form. Peptide text beside a SMILES is read from it.
Form field: MIC E. faecalis (one value per entry).

{"COMPOUND": "CC(C)C[C@@H](NC(=O)[C@@H](Cc1ccccc1)NC(=O)CNC(=O)[C@H](N)[C@H](C)O)C(=O)N[C@@H](C(=O)N[C@H](CC(N)=O)C(=O)N[C@@H](C(N)=O)C(C)C)C(C)C [P7, TGFLVNV] (H-[dT]G[dF][dL][dV][dN][dV]-NH2)", "ENDPOINT VALUE": ">256 µg/mL"}
{"COMPOUND": "CC(C)C[C@@H](NC(=O)[C@H](N)C(C)C)C(=O)N[C@@H](C(=O)N[C@H](CCCNC(=N)N)C(=O)N[C@H](CS)C(=O)N[C@H](CS)C(=O)NCC(N)=O)[C@H](C)O [P6, VLTRCCG] (H-[dV][dL][dT][dR][dC][dC]G-NH2)", "ENDPOINT VALUE": ">256 µg/mL"}

// below: MIC E. faecalis requested for another compound
q: Tell me the measured MIC E. faecalis of CC(C)C[C@@H](NC(=O)[C@H](NC(=O)[C@@H](Cc1ccc(O)cc1)NC(=O)[C@@H](CS)NC(=O)[C@@H](CS)NC(=O)[C@H](N)CCCCN)[C@H](C)O)C(=O)N1CCC[C@@H]1C(N)=O [P5, KCCYTLP] (H-[dK][dC][dC][dY][dT][dL][dP]-NH2) , please.
a: >256 µg/mL

Every entry's value here was drawn from patent US20220211796A1.
